# credit: BindingDB's records for doi:10.7270/Q2833QWM

Target: tRNA (guanine-N(1)-)-methyltransferase (Haemophilus influenzae (strain ATCC 51907 / DSM 11121 / KW20 / Rd), UniProt P43912)
Sequence (P43912 whole entry): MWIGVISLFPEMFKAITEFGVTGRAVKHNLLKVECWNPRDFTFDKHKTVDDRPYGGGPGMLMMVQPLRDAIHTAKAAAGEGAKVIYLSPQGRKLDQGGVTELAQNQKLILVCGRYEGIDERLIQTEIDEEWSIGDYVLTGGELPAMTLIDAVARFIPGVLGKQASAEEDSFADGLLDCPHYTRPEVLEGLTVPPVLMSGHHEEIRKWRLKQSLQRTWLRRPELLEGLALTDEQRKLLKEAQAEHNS
Experiment: ScintillationProximity_Assay
IC50 values for the molecules below.
quantity-measured: IC50 (nM)

| molecule | quantity-measured | value-reported |
| --- | --- | --- |
| Cc1cccc(C(=O)NCC2(NC(=O)c3cccc4nocc34)CCCC2)c1 [GTC000451A] | IC50 | 158 |
| NC(=O)c1ccc(NCC2CCCC2)nc1 [GTC000458A] | IC50 | 501 |
| COc1ccccc1CNc1ccc(C(N)=O)cn1 [GTC000454A] | IC50 | 794 |
| Nc1nonc1C(=O)NC1CCNCC1 [GTC000465A] | IC50 | 20000 |
| CC(C)(C)c1cccc(C(=O)NCC2(NC(=O)c3cccc4nocc34)CCCC2)c1 [GTC000450A] | IC50 | 5.01 |
| NC(=O)c1ccc(N[C@@H]2CC[C@@H](O)C2)nc1 [GTC000460A] | IC50 | 200 |
| NC(=O)c1ccc(N)nc1 [GTC000445A] | IC50 | 25100 |
| c1cc(-c2ncc[nH]2)ccn1 [GTC000447A] | IC50 | 316000 |
| COc1ccc(C(=O)n2ncnc2N)cc1 [GTC000473A] | IC50 | 2510 |
| CC(C)(C)CNc1ncc(C(N)=O)c(N)n1 [GTC000474A] | IC50 | 794 |
| Nc1nonc1C(=O)NCc1ccc(Cl)cc1 [GTC000448A] | IC50 | 39800 |
